B1: SPRY1 (parent)
chain: WIHRPGCRCKNSNTVYCKLESCPS

Variants of: B1
assay_method_text: protein stability index of a GFP-peptide fusion (GPS, HEK-293T) (PSI 1-6); higher = more stable;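 also: lentivirally expressed fusions sorted by FACS into six bins by GFP to DsRed ratio, PSI derived from sequencing read proportions per bin multiplied by bin number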
measurement_context: c terminus: a fixed tail appended
Measured protein stability index, listed per entry for reference.
// return a plain number; no unit text

Examples with their reported protein stability index follow.
Prompt: Consider the variant shown here: C7S What is its recorded protein stability index?
Response: 1.77

Prompt: Consider the variant shown here: N13R What is its recorded protein stability index?
Response: 1.88

Others:
Prompt: Consider the variant shown here: N11T What is its recorded protein stability index?
Response: 2.1

meta.source: the supplement of paper PMC10567573
